binders and their reported Activity
Target: T1, full-length wild type recombinant human LCAT (human, UniProt P04180 25-440)
T1 sequence: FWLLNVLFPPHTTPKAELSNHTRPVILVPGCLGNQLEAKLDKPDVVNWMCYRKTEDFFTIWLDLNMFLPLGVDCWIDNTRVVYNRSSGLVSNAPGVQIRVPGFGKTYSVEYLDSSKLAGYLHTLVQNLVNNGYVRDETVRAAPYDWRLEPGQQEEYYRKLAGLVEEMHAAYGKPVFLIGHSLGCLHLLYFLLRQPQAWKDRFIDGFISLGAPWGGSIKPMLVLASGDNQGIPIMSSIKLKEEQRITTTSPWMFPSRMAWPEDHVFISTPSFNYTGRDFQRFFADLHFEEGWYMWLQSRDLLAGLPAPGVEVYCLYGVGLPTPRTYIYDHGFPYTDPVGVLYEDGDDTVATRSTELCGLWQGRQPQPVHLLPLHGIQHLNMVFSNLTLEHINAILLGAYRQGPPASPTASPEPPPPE
Assay: cell-based or functional assay
REPORTED PROPERTY: Activity

1. 27C3(S42A, M136I/N107G, I112V) (antibody, human IgG2, lambda, V domains shown, IgG2 lambda; The mutations are already in the entries) VH: QVQLQESGPGLVKPSQTLSLTCTVSGASISSGGYNWAWIRQHPGKGLEWIGYIYYSGSTYYNPSLKSRVTISVDTSKNQFSLKLSSVTAADTAVYYCARERGYCSSTSCSRVIDVWGQGTTVTVSS VL: SSELTQDPAVSVALGQTVRITCQGDSLRSYYASWYQQKPGQAPVLVIYGKNNRPSGIPDRFSGSSSGNTASLTITGAQAEDEADYYCGSRDNVGNHQVFGGGTKLTVLG; 70%
2. 27C3(S42A, S133T, M136I/N107G, I112V) (antibody, human IgG2, lambda, V domains shown, IgG2 lambda; The mutations are already in the entries) VH: QVQLQESGPGLVKPSQTLSLTCTVSGASISSGGYNWAWIRQHPGKGLEWIGYIYYSGSTYYNPSLKSRVTISVDTSKNQFSLKLSSVTAADTAVYYCARERGYCSSTSCTRVIDVWGQGTTVTVSS VL: SSELTQDPAVSVALGQTVRITCQGDSLRSYYASWYQQKPGQAPVLVIYGKNNRPSGIPDRFSGSSSGNTASLTITGAQAEDEADYYCGSRDNVGNHQVFGGGTKLTVLG; 83%
3. 27C3(S42A, S131T, V135I, M136I/N107G) (antibody, human IgG2, lambda, V domains shown, IgG2 lambda; The mutations are already in the entries) VH: QVQLQESGPGLVKPSQTLSLTCTVSGASISSGGYNWAWIRQHPGKGLEWIGYIYYSGSTYYNPSLKSRVTISVDTSKNQFSLKLSSVTAADTAVYYCARERGYCSSTTCSRIIDVWGQGTTVTVSS VL: SSELTQDPAVSVALGQTVRITCQGDSLRSYYASWYQQKPGQAPVLVIYGKNNRPSGIPDRFSGSSSGNTASLTITGAQAEDEADYYCGSRDNIGNHQVFGGGTKLTVLG; 70%
4. 27C3(S42A, S131T, V135I, M136I/N107G, I112V) (antibody, human IgG2, lambda, V domains shown, IgG2 lambda; The mutations are already in the entries) VH: QVQLQESGPGLVKPSQTLSLTCTVSGASISSGGYNWAWIRQHPGKGLEWIGYIYYSGSTYYNPSLKSRVTISVDTSKNQFSLKLSSVTAADTAVYYCARERGYCSSTTCSRIIDVWGQGTTVTVSS VL: SSELTQDPAVSVALGQTVRITCQGDSLRSYYASWYQQKPGQAPVLVIYGKNNRPSGIPDRFSGSSSGNTASLTITGAQAEDEADYYCGSRDNVGNHQVFGGGTKLTVLG; 70%
5. 27C3(S42A, S131T, M136I/N107G, I112V) (antibody, human IgG2, lambda, V domains shown, IgG2 lambda; The mutations are already in the entries) VH: QVQLQESGPGLVKPSQTLSLTCTVSGASISSGGYNWAWIRQHPGKGLEWIGYIYYSGSTYYNPSLKSRVTISVDTSKNQFSLKLSSVTAADTAVYYCARERGYCSSTTCSRVIDVWGQGTTVTVSS VL: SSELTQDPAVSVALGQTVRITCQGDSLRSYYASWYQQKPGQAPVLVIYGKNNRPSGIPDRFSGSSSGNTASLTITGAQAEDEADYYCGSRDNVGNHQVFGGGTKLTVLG; 89%
6. 27C3(S42A, S133T, M136I/I112V) (antibody, human IgG2, lambda, V domains shown, IgG2 lambda; The mutations are already in the entries) VH: QVQLQESGPGLVKPSQTLSLTCTVSGASISSGGYNWAWIRQHPGKGLEWIGYIYYSGSTYYNPSLKSRVTISVDTSKNQFSLKLSSVTAADTAVYYCARERGYCSSTSCTRVIDVWGQGTTVTVSS VL: SSELTQDPAVSVALGQTVRITCQGDSLRSYYASWYQQKPGQAPVLVIYGKNNRPSGIPDRFSGSSSGNTASLTITGAQAEDEADYYCNSRDNVGNHQVFGGGTKLTVLG; 46%
7. 27C3(S42A, S131T, V135I, M136I/I112V) (antibody, human IgG2, lambda, V domains shown, IgG2 lambda; The mutations are already in the entries) VH: QVQLQESGPGLVKPSQTLSLTCTVSGASISSGGYNWAWIRQHPGKGLEWIGYIYYSGSTYYNPSLKSRVTISVDTSKNQFSLKLSSVTAADTAVYYCARERGYCSSTTCSRIIDVWGQGTTVTVSS VL: SSELTQDPAVSVALGQTVRITCQGDSLRSYYASWYQQKPGQAPVLVIYGKNNRPSGIPDRFSGSSSGNTASLTITGAQAEDEADYYCNSRDNVGNHQVFGGGTKLTVLG; 69%
8. 27C3(S42A, S131T, M136I/I112V) (antibody, human IgG2, lambda, V domains shown, IgG2 lambda; The mutations are already in the entries) VH: QVQLQESGPGLVKPSQTLSLTCTVSGASISSGGYNWAWIRQHPGKGLEWIGYIYYSGSTYYNPSLKSRVTISVDTSKNQFSLKLSSVTAADTAVYYCARERGYCSSTTCSRVIDVWGQGTTVTVSS VL: SSELTQDPAVSVALGQTVRITCQGDSLRSYYASWYQQKPGQAPVLVIYGKNNRPSGIPDRFSGSSSGNTASLTITGAQAEDEADYYCNSRDNVGNHQVFGGGTKLTVLG; 65%
9. 27C3(S42A, S133T, M136I/N107G) (antibody, human IgG2, lambda, V domains shown, IgG2 lambda; The mutations are already in the entries) VH: QVQLQESGPGLVKPSQTLSLTCTVSGASISSGGYNWAWIRQHPGKGLEWIGYIYYSGSTYYNPSLKSRVTISVDTSKNQFSLKLSSVTAADTAVYYCARERGYCSSTSCTRVIDVWGQGTTVTVSS VL: SSELTQDPAVSVALGQTVRITCQGDSLRSYYASWYQQKPGQAPVLVIYGKNNRPSGIPDRFSGSSSGNTASLTITGAQAEDEADYYCGSRDNIGNHQVFGGGTKLTVLG; 73%
10. 27C3(S42A, S131T, M136I/N107G) (antibody, human IgG2, lambda, V domains shown, IgG2 lambda; The mutations are already in the entries) VH: QVQLQESGPGLVKPSQTLSLTCTVSGASISSGGYNWAWIRQHPGKGLEWIGYIYYSGSTYYNPSLKSRVTISVDTSKNQFSLKLSSVTAADTAVYYCARERGYCSSTTCSRVIDVWGQGTTVTVSS VL: SSELTQDPAVSVALGQTVRITCQGDSLRSYYASWYQQKPGQAPVLVIYGKNNRPSGIPDRFSGSSSGNTASLTITGAQAEDEADYYCGSRDNIGNHQVFGGGTKLTVLG; 65%

Source of measurements: patent US20150284471A1
